Overview of reported pEC50 across a group of compounds:
Biological target: human mGluR5a receptor (Homo sapiens, UniProt P41594)
Sequence (P41594 21-1180 isoform P41594-2 limits assumed): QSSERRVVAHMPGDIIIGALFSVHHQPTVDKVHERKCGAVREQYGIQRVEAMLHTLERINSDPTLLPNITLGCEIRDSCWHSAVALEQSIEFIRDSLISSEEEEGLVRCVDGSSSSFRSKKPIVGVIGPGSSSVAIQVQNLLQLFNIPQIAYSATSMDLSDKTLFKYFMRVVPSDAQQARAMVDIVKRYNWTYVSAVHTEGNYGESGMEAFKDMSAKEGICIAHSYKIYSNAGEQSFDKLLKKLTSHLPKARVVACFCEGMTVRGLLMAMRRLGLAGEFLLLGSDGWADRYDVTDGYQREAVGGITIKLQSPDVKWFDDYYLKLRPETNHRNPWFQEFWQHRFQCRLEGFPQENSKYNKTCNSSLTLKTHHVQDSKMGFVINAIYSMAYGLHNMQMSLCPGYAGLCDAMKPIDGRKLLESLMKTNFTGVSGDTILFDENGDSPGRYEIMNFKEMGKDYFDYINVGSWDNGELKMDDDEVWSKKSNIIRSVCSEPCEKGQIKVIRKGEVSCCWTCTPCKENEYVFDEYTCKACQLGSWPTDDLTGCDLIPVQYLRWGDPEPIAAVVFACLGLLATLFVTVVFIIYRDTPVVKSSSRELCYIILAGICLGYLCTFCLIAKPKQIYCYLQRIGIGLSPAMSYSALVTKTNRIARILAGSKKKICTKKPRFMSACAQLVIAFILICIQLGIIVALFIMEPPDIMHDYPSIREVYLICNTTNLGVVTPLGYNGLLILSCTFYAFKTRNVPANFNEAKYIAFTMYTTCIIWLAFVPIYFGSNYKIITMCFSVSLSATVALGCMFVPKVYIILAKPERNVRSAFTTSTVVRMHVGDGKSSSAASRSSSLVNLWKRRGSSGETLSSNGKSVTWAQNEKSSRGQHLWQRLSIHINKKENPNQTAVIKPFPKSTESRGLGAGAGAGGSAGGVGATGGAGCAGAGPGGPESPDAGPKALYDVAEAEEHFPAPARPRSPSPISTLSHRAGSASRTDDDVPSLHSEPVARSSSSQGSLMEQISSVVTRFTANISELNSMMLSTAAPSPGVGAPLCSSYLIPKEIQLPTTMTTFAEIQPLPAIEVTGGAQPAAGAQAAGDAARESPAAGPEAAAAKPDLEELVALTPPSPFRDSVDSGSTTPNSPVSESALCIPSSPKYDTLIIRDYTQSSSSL
Test: Cell-based functional assay (Ca2+ mobilization, FDSS) for positive allosteric modulation of mGluR5
Settings: HEK cells transfected with human mGluR5a (H10H or H12H), potentiation in presence of EC20 glutamate; read-out: EC50
Reminder that pEC50 means the negative base-10 logarithm of the concentration expressed in mol/L.

{"compound": "O=C1N(c2ccc(F)cc2)CCc2nc(COc3cccc(F)c3)cn21 [compound 34]", "observed result": 7.19}
{"compound": "N#Cc1cccc(OCc2cn3c(=O)n(-c4ccc(F)cc4)ccc3n2)c1 [compound 13]", "observed result": 6.46}
{"compound": "CN(C)c1cccc(-n2ccc3nc(COc4ccccc4)cn3c2=O)n1 [compound 24]", "observed result": 6.70}

Entry O=c1n(-c2ccc(F)cc2)cc(F)c2nc(COc3ccccc3)cn12 [compound 20] — recorded pEC50 = 7.11

Measured pEC50, Cc1cccc(-n2ccc3nc(COc4ccccc4)cn3c2=O)n1 [compound 8] : 5.64

Notebook: Cc1cc(-n2ccc3nc(COc4ccccc4)cn3c2=O)ncc1F [compound 23] , pEC50 read as 6.49

Record O=c1n(-c2ccc(F)cc2)ccc2nc(COc3ccccn3)cn12 [compound 18] , field pEC50: 5.60

Sample O=c1n(Cc2ccccc2)ccc2nc(COc3ccccc3)cn12 [compound 7] ; pEC50 observed: 5.90

Note to self: pEC50 recorded for O=c1n(-c2ccc(F)cn2)ccc2nc(COc3ccccc3)cn12 [compound 9] was 6.31

The compound listed as Cc1cccc(OCc2cn3c(=O)n(-c4ccc(F)cc4)ccc3n2)c1 [compound 12] shows pEC50 equal to 6.33

pEC50 in this record for Cc1ccc(-n2ccc3nc(COc4ccccc4)cn3c2=O)nc1 [compound 11] : 5.88
